Every entry's value here was drawn from patent US20190119282A1.

# Experimental System: PAR2 (HT-29 cells, trypsin activation) (Homo sapiens)
# Construct: host or cells: HT-29 cells
# Sequence (P55085 26-397): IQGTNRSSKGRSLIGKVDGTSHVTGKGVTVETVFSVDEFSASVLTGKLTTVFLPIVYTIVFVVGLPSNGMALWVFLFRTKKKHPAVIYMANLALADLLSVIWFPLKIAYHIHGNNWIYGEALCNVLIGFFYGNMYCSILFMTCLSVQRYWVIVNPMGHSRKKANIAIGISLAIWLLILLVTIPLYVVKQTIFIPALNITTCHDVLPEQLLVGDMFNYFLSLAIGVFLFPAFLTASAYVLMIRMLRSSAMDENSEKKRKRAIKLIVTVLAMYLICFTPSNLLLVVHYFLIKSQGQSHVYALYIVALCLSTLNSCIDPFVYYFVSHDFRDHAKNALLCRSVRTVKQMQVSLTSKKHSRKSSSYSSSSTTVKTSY
# Measurement Protocol: Ca FLIPR TETRA assay, ANTAGONIST mode, stimulation with 3.1 U/mL trypsin
# Assay type: cell-based
# Assay Setup: HT-29 cells, stimulation with 3.1 U/mL trypsin
This section presents compounds with their documented IC50 values.
Answer as a quantity: numeral, then unit.

CNC(=O)[C@@H]1CCN(C(=O)c2cn3nc(-c4ccc(F)cc4)cc(C(F)(F)F)c3n2)C[C@@H]1C :: 7200 nM
CC(C)c1cc(-c2ccc(F)cc2)nn2cc(C(=O)N3CCN(C)C(=O)C3(C)C)nc12 :: 11 nM
COC(=O)[C@@H]1C[C@@H](C)CN(C(=O)c2cn3nc(-c4ccc(F)cc4)cc(C(F)(F)F)c3n2)C1 :: 1500 nM

Returns the measured IC50 for the input compound. Input: CCc1cc(-c2ccc(F)cc2)nn2cc(C(=O)N3CCN(C(=O)C4(O)CCC4)CC3(C)C)nc12
160 nM

Fill in: IC50 of Cc1cc(-c2ccc(F)cc2)nn2cc(C(=O)N3CCN(C(=O)C(C)(C)O)[C@@H](C)C3)nc12 is ___
26000 nM

Which IC50 value is on record for CCc1cc(-c2ccc(F)cc2)nn2cc(C(=O)N3CCN(C(=O)C(C)(C)O)CC3(C)C)nc12 ?
330 nM

Quick one: IC50 of CC(C)c1cc(-c2ccc(F)cc2)nn2cc(C(=O)N3CCN(C(=O)C(C)(C)N)[C@@H](C)C3)nc12 ?
14000 nM

Which IC50 value is on record for Cc1cc(-c2ccc(F)cc2)nn2cc(C(=O)N3CCN(C(=O)[C@H](O)CC(C)(C)C)CC3(C)C)nc12 ?
8 nM

Which IC50 is reported for this compound? COC(=O)[C@@H]1CCN(C(=O)c2cn3nc(-c4ccc(F)cc4)cc(C(F)(F)F)c3n2)C[C@@H]1C
220 nM

I'd like to know its IC50. The compound in question is CC(C)c1cc(-c2ccc(F)cc2)nn2cc(C(=O)N3CCN(C(=O)C(O)C(C)C)CC3(C)C)nc12 (stereo not shown)
11 nM

Using the record for C=C(C)c1cc(-c2ccc(F)cc2)nn2cc(C(=O)N3CCN(C(=O)[C@H](O)CC(C)(C)C)[C@@H](C)C3)nc12 , report its IC50.
10 nM

Sample CC1(c2cc(-c3ccc(F)cc3)nn3cc(C(=O)N4CCNC(=O)C4(C)C)nc23)CC1 — what was its IC50?
3 nM

Need IC50 of O=C(c1cn2nc(-c3ccc(F)cc3)cc(C(F)(F)F)c2n1)N1CCCCC1c1ccncc1 (stereo not shown) , thanks.
3600 nM

// lookup IC50 for C[C@H]1CN(C(=O)c2cn3nc(-c4ccc(F)cc4)cc(C(F)(F)F)c3n2)CCN1C(=O)C(O)Cc1ccccc1 (stereo partly shown)
15 nM

Using the record for CC(C)c1cc(-c2ccc(F)cc2)nn2cc(C(=O)N3CCN(C(=O)C(C)(C)NC(=O)OCc4ccccc4)[C@@H](C)C3)nc12 , report its IC50.
160 nM

Form field: reported IC50 of CCS(=O)(=O)N1CCN(C(=O)c2cn3nc(-c4ccc(F)cc4)cc(C(F)(F)F)c3n2)CC1
48000 nM

IC50 for CC(O)C(=O)N1CCN(C(=O)c2cn3nc(-c4ccc(F)cc4)cc(C(C)C)c3n2)C(C)(C)C1 (stereo not shown) ?
60 nM

Value lookup for IC50; key = CC(C)CCC(=O)N1CCN(C(=O)c2cn3nc(-c4ccc(F)cc4)cc(C(C)C)c3n2)C[C@@H]1C
4 nM

Query (compound): CCc1cc(-c2ccc(F)cc2)nn2cc(C(=O)N3CCN(C(=O)[C@H](O)C(C)C)CC3(C)C)nc12 ; field requested: IC50
53 nM

Name the recorded IC50 for CCc1cc(-c2ccc(F)cc2)nn2cc(C(=O)N3CCN(C(=O)[C@H](O)CC(C)C)CC3(C)C)nc12 .
2 nM
